These entries and their values trace back to ChEMBL document CHEMBL3393015.

# TESTED SYSTEM: Bcl-xL/Bcl-2-like protein 11 (Homo sapiens, UniProt Q07817)
# Sequence (Q07817 whole entry): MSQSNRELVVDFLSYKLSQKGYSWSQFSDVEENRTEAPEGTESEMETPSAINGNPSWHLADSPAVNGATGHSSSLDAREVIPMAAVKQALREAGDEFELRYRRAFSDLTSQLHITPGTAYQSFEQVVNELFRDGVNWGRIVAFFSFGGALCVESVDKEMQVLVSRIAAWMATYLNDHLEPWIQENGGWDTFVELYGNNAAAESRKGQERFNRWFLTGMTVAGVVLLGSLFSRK
# Sequence (O43521 whole entry, further chain): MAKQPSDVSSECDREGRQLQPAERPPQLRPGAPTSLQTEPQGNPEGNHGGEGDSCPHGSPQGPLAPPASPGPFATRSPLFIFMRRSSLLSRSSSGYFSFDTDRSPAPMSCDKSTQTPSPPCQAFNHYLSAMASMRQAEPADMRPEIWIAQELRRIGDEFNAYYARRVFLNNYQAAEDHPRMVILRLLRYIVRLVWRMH
READOUT LABEL: pIC50
pIC50 is defined as minus the log10 of a concentration measured in mol/L.

{"ITEM SMILES": "O=C(c1ccccc1O)c1[nH]c(Cl)c(Cl)c1-n1c(C(=O)c2ccc(Cl)cc2O)cc(Cl)c1Cl", "pIC50": 5.04}
{"ITEM SMILES": "O=C(c1ccccc1O)c1[nH]c(Cl)c(Cl)c1-n1c(C(=O)c2cccc(Cl)c2O)cc(Cl)c1Cl", "pIC50": 5.00}

IN: pIC50 lookup needed for `O=C(c1ccccc1O)c1[nH]c(Cl)c(Cl)c1-n1c(C(=O)c2cc(F)ccc2O)cc(Cl)c1Cl` , thanks.
OUT: 4.88
